Just for reference, ChEMBL document CHEMBL5705904 is where these values come from.

# assayInfo: Half life in human at 400 mg, po administered for 8 days by LC-MS/MS analysis
# Type: ADME, organism-based
# conditionInfo: in vivo, time 8 day
readoutKind: half-life (h)
Form entry: value (h) — number only.

Query: Can you share its half-life? I mean this compound: CC#CC(=O)N1CCC[C@H]1c1nc(-c2ccc(C(=O)Nc3ccccn3)cc2)c2c(N)nccn12
Reply: 1.39

###

# assayInfo: Cmax in human at 250 mg, po administered for 8 days by LC-MS/MS analysis
# Type: ADME, organism-based
# conditionInfo: in vivo, time 8 day
readoutKind: Cmax (ng/mL)
Write down the numeric answer in ng/mL and omit the unit.

Query: Consider the molecule CC#CC(=O)N1CCC[C@H]1c1nc(-c2ccc(C(=O)Nc3ccccn3)cc2)c2c(N)nccn12 and give its measured Cmax.
Reply: 1350

###

# assayInfo: Apparent oral clearance in human at 100 mg, po BID administered for 8 days by LC-MS/MS analysis
# Assay type: ADME, organism-based
# conditionInfo: in vivo, time 8 day
readoutKind: CL/F (mL/min)
Reply with just the number (in mL/min).

Query: # query: CL/F of entry CC#CC(=O)N1CCC[C@H]1c1nc(-c2ccc(C(=O)Nc3ccccn3)cc2)c2c(N)nccn12 [ACALABRUTINIB]
Reply: 2750

###

# assayInfo: Tmax in human at 175 mg, po administered for 8 days by LC-MS/MS analysis
# Type: ADME, organism-based
# conditionInfo: in vivo, time 8 day
readoutKind: Tmax (min)
A number alone suffices; assume min.

Query: Would you kindly share the measured Tmax for CC#CC(=O)N1CCC[C@H]1c1nc(-c2ccc(C(=O)Nc3ccccn3)cc2)c2c(N)nccn12 ?
Reply: 38.4

###

# targetSystem: Tyrosine-protein kinase Fyn (Homo sapiens, UniProt P06241)
# Sequence (P06241 whole entry): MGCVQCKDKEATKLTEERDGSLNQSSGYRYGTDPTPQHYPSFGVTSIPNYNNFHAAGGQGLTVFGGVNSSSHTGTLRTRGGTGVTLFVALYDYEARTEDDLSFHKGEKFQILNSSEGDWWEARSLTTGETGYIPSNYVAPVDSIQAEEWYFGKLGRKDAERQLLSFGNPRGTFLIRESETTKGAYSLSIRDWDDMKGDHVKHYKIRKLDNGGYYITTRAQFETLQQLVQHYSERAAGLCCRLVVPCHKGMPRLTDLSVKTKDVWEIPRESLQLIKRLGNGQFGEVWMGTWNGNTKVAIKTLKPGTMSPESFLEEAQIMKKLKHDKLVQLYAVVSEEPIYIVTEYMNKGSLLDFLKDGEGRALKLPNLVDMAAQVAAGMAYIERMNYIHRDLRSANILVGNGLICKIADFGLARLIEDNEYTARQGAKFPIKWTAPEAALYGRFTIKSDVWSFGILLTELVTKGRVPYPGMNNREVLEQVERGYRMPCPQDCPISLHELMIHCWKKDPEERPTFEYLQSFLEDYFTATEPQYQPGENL
# assayInfo: Inhibition of recombinant FYN (unknown origin) preincubated for 1 hr […] by Z-Lyte assay
pIC50: −log10 of the molar value.
readoutKind: pIC50

Query: Value lookup for pIC50; key = CC#CC(=O)N1CCC[C@H]1c1nc(-c2ccc(C(=O)Nc3ccccn3)cc2)c2c(N)nccn12
Reply: < 6.00

###

# assayInfo: AUC(0 to infinity) in human at 100 mg, po BID administered for 8 days by LC-MS/MS analysis
# Format: ADME, organism-based
# conditionInfo: in vivo, time 8 day
readoutKind: AUC(0-inf)
Your reply should be a number followed by the unit it is expressed in.

Query: I have this molecule here, CC#CC(=O)N1CCC[C@H]1c1nc(-c2ccc(C(=O)Nc3ccccn3)cc2)c2c(N)nccn12 , and I need its recorded AUC(0-inf).
Reply: 927 ng·h/mL

###

# assayInfo: AUC(0 to infinity) in human at 250 mg, po administered for 8 days by LC-MS/MS analysis
# Format: ADME, organism-based
# conditionInfo: in vivo, time 8 day
readoutKind: AUC(0-inf) (ng·h/mL)
Quick reminder: number only, in ng·h/mL, skip the unit.

Query: Would you mind telling me what AUC(0-inf) value was observed for CC#CC(=O)N1CCC[C@H]1c1nc(-c2ccc(C(=O)Nc3ccccn3)cc2)c2c(N)nccn12 [ACALABRUTINIB] ?
Reply: 2310

###

# assayInfo: AUC(0 to 12 hrs) in human at 175 mg, po administered for 8 days by LC-MS/MS analysis
# Assay type: ADME, organism-based
# conditionInfo: in vivo, time 8 day
readoutKind: AUC at 192 h

Query: For CC#CC(=O)N1CCC[C@H]1c1nc(-c2ccc(C(=O)Nc3ccccn3)cc2)c2c(N)nccn12 , what is its reported AUC at 192 h?
Reply: 1160 ng·h/mL
